molecular target: E3 ubiquitin-protein ligase XIAP (Homo sapiens) (UniProt P98170); experiment: XIAP binders, primary screen, biophysical, small-molecule microarray, fluorescence 635 nm (AID 1181); conditions: small-molecule microarray binding, higher = more signal;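 further: score merges 667 nm emission and signal to noise over triplicate slides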
Sequence (P98170 whole entry, looked up): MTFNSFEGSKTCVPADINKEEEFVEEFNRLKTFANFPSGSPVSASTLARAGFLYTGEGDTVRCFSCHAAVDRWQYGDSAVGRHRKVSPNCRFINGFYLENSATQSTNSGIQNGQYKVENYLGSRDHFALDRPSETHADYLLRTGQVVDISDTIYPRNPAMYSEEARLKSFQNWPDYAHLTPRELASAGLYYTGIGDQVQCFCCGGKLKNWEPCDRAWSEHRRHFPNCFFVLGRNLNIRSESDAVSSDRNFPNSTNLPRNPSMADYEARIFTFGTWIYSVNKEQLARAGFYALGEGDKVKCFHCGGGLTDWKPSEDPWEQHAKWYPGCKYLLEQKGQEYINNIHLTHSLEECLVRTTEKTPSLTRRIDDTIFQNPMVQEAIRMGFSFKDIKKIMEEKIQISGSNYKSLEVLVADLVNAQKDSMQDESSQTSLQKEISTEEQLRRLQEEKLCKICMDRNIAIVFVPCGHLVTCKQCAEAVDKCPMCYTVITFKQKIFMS
measuredMetric: composite z-score

molecule	obsValue
C=CCC(OC(C)=O)[C@@H]1[C@@H](N(Cc2cc3ccccc3o2)C(=O)c2cccc3ccccc23)c2cc(OCCCO)ccc2N1C(=O)c1ccc2ccccc2c1 (some centres not stated)	-0.146
C/C=C/CN(C(=O)C#Cc1ccccc1)[C@H](CO[Si](C)(C)C(C)(C)C)c1ccccc1	-0.193
CC1CC/C=C\[C@H]2OC34C=CCN(CCN5CCOCC5)C(=O)[C@H]3N(CCCCCCO)C(=O)[C@@H]4C2C(=O)O1 (some centres not stated)	0.288
CCCCC(=C=CC[C@@H](O)c1ccc(OCCO)cc1)C[C@@H](O)c1ccccn1	0.133
C=C(COC)C(=O)CC[C@@H](OC(=O)c1cccnc1)c1cccc(OCCO)c1	-0.162
COCCOC(=O)N1C(=O)[C@@]2(c3cc(C#Cc4ccc(OC)cc4)ccc31)[C@H](c1ccc(OCCO)cc1)N1[C@H](c3ccccc3)[C@H](c3ccccc3)OC(=O)[C@H]1[C@@H]2C(=O)N1CCCCCCC1	0.0162
C[N+](C)(C)CCCC[C@@H]1NC(=O)[C@H]2C[C@@H](C(=O)NCCCCCNC(=O)CS)[C@@H](c3ccc(O)cc3)N2C1=O	-0.216

----------
assay: S. cerevisiae growth modulation with rapamycin, primary screen, strain BY4716, OD600, 96 h (AID 1091); settings: higher = more signal, called active from +8 up or from −8 down; further: test concentration not given here
Rule: z-score under 2 gives FALSE, otherwise TRUE.

molecule	cat
[N-]=[N+]=NCc1ccccc1C[C@@]1(C(=O)O)N=C(c2ccc(OCCCO)cc2)O[C@@H]1c1ccccc1CN=[N+]=[N-]	FALSE
O=C1N(CCS(=O)(=O)c2ccccc2)c2ccccc2[C@@H]2OC(c3ccc(OCCCO)cc3)=N[C@]12CCS(=O)(=O)c1ccccc1	TRUE
CN1C(=O)C2C=CC(C(O)c3ccc(-c4ccccc4)s3)N(Nc3ccccc3)C2C1=O (stereo not given)	FALSE
CCCCCCCCCCC(O)C1C=CC2C(=O)N(C)C(=O)C2N1N1CCCCC1 (stereo not given)	TRUE
C=CCC(OC(C)=O)[C@@H]1[C@@H](N(Cc2ccc(-c3cccc(C(F)(F)F)c3)o2)C(=O)Cc2ccc(F)cc2)c2cc(OCCCO)ccc2N1C(=O)c1ccc2ccccc2n1 (stereo not given in full)	FALSE
CCCCC(O)C1C=CC2C(=O)NC(=O)C2N1Nc1ccccn1 (stereo not given)	FALSE
CN1C(=O)[C@]2(CCC(=O)OC(C)(C)C)N=C(c3ccc(OCCCO)cc3)O[C@@H]2c2ccccc21	FALSE
CCOC(=O)C1=C(C(=O)OCC)N(S(=O)(=O)CC[Si](C)(C)C)[C@H](c2ccccc2)CC1	FALSE
C=CCNC(=O)[C@@H]1[C@H]2C(=O)O[C@H](c3ccccc3)[C@H](c3ccccc3)N2[C@H](c2ccccc2OCCO)[C@@]12C(=O)N(C(=O)OCCOC)c1ccc(C#CCCO)cc12	TRUE
CC(C)[C@@H](C(=O)O)n1cc(-c2ccccc2)nn1	FALSE
COCCOC(=O)N1C(=O)[C@@]2(c3cc(C#Cc4ccc(OC)cc4)ccc31)[C@H](C(=O)N1CCCCCCC1)[C@H]1C(=O)O[C@H](c3ccccc3)[C@H](c3ccccc3)N1[C@@H]2c1ccccc1OCCO	TRUE
CCCCC(=C=CC[C@@H](O)c1cccc(OCCO)c1)CCO	FALSE
COCCOC(=O)N1C(=O)[C@@]2(c3cc(C#CCC(C(=O)OC)C(=O)OC)ccc31)[C@H](C(N)=O)[C@H]1C(=O)O[C@H](c3ccccc3)[C@H](c3ccccc3)N1[C@@H]2c1ccc(OCCO)cc1	TRUE
CCCCN1CC=CC23O[C@@H]4C=CCOC(=O)[C@@H]4[C@H]2C(=O)N(C(CO)C(C)C)[C@@H]3C1=O (stereo not given in full)	FALSE
CCOC(=O)C1=CC[C@@H](c2ccc(F)cc2)N(S(=O)(=O)c2ccc(C)cc2)[C@H]1c1ccc([N+](=O)[O-])cc1	TRUE
